System: B. bifidum MIMBb23sg DSM 32708
Assay: Antibiotic MIC by microdilution analysis (ISO, 2010)
Assay type: cell-based, Bifidobacterium bifidum
Details: Bifidobacterium bifidum, DSM32708; microdilution analysis, ISO 2010; read-out: MIC of MIMBb23sg
Catalogue of MIC readings, one per entry.
ENDPOINT NAME: MIC (µg/mL)

{"columns": ["SMILES ENTRY", "TARGET OR SYSTEM", "UNIT OF MEASUREMENT", "NUMERIC VALUE"],
 "data": [
  ["CN(C)[C@@H]1C(O)=C(C(N)=O)C(=O)[C@@]2(O)C(O)=C3C(=O)c4c(O)cccc4[C@@](C)(O)[C@H]3C[C@@H]12", "B. bifidum MIMBb23sg DSM 32708", "µg/mL", 1],
  ["CC[C@H]1OC(=O)[C@H](C)[C@@H](O[C@H]2C[C@@](C)(OC)[C@@H](O)[C@H](C)O2)[C@H](C)[C@@H](O[C@@H]2O[C@H](C)C[C@H](N(C)C)[C@H]2O)[C@](C)(O)C[C@@H](C)C(=O)[C@H](C)[C@@H](O)[C@]1(C)O", "B. bifidum MIMBb23sg DSM 32708", "µg/mL", 0.25],
  ["CCC[C@@H]1C[C@@H](C(=O)N[C@@H]([C@H]2O[C@H](SC)[C@H](O)[C@@H](O)[C@H]2O)[C@H](C)Cl)N(C)C1", "B. bifidum MIMBb23sg DSM 32708", "µg/mL", 0.25],
  ["NC[C@H]1O[C@H](O[C@H]2[C@H](O)[C@@H](O[C@H]3O[C@H](CO)[C@@H](O)[C@H](N)[C@H]3O)[C@H](N)C[C@@H]2N)[C@H](O)[C@@H](O)[C@@H]1O", "B. bifidum MIMBb23sg DSM 32708", "µg/mL", 128],
  ["CC1(C)S[C@@H]2[C@H](NC(=O)[C@H](N)c3ccccc3)C(=O)N2[C@H]1C(=O)O", "B. bifidum MIMBb23sg DSM 32708", "µg/mL", 0.25],
  ["[H]/N=C(/N)N[C@H]1[C@H](O)[C@@H](O)[C@H](O[C@@H]2O[C@@H](C)[C@](O)(C=O)[C@H]2O[C@@H]2O[C@@H](CO)[C@H](O)[C@@H](O)[C@@H]2NC)[C@@H](N/C(N)=N\\[H])[C@@H]1O", "B. bifidum MIMBb23sg DSM 32708", "µg/mL", 128],
  ["O=C(N[C@H](CO)[C@H](O)c1ccc([N+](=O)[O-])cc1)C(Cl)Cl", "B. bifidum MIMBb23sg DSM 32708", "µg/mL", 2]
]}
